The reported measurements were obtained from patent US8993756B2.

Target: JAK3 (Homo sapiens (Human), UniProt P52333)
Sequence (P52333 822-1111): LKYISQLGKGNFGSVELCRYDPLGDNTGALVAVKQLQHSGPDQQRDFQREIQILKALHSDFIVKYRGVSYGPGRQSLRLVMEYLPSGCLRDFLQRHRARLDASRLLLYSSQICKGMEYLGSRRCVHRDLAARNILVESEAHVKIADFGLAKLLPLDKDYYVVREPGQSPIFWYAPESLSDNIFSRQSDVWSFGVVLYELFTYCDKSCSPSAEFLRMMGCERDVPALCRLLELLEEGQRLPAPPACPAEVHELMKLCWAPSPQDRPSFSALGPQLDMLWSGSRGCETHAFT
Experiment: Jak Biochemical HTRF Assay (JAK3)
Settings: recombinant GST-tagged catalytic domain, [ATP] 2.9 μM
pIC50: −log10 of the molar value.
readout kind: pIC50

Reference set (2 entries):
smiles record	assayed system	readout kind	value reported
C=C(C)C(=O)Nc1cc(-c2ncnc3[nH]cc(C(=O)OCC)c23)cn(C)c1=O	JAK3 (Homo sapiens (Human), UniProt P52333)	pIC50	8.96
CCOC(=O)c1c[nH]c2ncnc(-c3ccc(N(C)C)cc3)c12	JAK3 (Homo sapiens (Human), UniProt P52333)	pIC50	8.48

(A) C=C(C)C(=O)Nc1cc(C)cc(-c2ncnc3[nH]cc(C(=O)OCC)c23)c1
(B) C/C=C\C(=O)Nc1cccc(-c2ncnc3[nH]cc(C(=O)OCC)c23)c1
Query :: # return whichever of A and B has the smaller pIC50 Use the label to indicate which entry you chose.
Result :: B
